molecular target: DHODH (Mus musculus); construct: IC50 value for the mouse liver mitochondrial fraction; from tissue; host or cells: mouse liver mitochondria; assay: DHODH inhibition with mouse liver mitochondria; format: biochemical; conditions: mouse liver mitochondria; read-out: DHODH IC50 Mouse
pIC50: −log10 of the molar value.
endpoint: pIC50

entry.smiles	measured.result
COc1ccc([C@H]2c3[nH]c4ccc(Cl)cc4c3CCN2C(=O)Oc2ccc(Cl)cc2)cc1	6.99
O=C(O)c1c2c(nc3ccc(F)cc13)-c1ccc(-c3ccccc3F)cc1CCC2	8.21

----------
target: DHODH (Homo sapiens, UniProt Q02127); construct: The mitochondria fraction was isolated from A‐673 cells using Q proteome Mitochondria Isolation kit; endogenous in cells; host or cells: A-673 cells, mitochondria fraction; assay: DHODH inhibition assay, A‐673 mitochondria fraction (orotic acid production, LCMSMS); type: biochemical; conditions: Table S3, read-out: DHODH IC50
Sequence (Q02127 whole entry): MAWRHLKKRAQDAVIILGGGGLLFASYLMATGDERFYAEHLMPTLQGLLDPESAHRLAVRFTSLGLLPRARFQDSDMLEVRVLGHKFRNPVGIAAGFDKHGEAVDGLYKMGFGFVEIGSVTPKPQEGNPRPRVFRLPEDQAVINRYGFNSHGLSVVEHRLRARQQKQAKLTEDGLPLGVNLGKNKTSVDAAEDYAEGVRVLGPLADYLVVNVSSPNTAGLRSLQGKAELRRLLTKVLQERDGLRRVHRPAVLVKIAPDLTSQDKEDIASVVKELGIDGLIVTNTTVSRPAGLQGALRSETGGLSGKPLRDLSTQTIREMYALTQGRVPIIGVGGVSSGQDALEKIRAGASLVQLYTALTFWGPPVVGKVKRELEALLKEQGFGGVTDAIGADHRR
pIC50: −log10 of the molar value.
Form field: pIC50 (one value per entry).
endpoint: pIC50

compound	assayed.target	endpoint	measured.result
O=C(O)c1c2c(nc3ccc(F)cc13)-c1ccc(-c3ccccc3F)cc1CCC2	DHODH (Homo sapiens, UniProt Q02127)	pIC50	7.77
CC(=O)N1CCc2c([nH]c3ccc(Br)cc23)C1c1ccccc1 (centres unmarked)	DHODH (Homo sapiens, UniProt Q02127)	pIC50	8.46

----------
biological target: DHODH (Mus musculus, UniProt O35435); construct: IC50 value for the mouse liver mitochondrial fraction; from tissue; host or cells: mouse liver mitochondria; assay: DHODH inhibition with mouse liver mitochondria; format: biochemical
Sequence (O35435 whole entry): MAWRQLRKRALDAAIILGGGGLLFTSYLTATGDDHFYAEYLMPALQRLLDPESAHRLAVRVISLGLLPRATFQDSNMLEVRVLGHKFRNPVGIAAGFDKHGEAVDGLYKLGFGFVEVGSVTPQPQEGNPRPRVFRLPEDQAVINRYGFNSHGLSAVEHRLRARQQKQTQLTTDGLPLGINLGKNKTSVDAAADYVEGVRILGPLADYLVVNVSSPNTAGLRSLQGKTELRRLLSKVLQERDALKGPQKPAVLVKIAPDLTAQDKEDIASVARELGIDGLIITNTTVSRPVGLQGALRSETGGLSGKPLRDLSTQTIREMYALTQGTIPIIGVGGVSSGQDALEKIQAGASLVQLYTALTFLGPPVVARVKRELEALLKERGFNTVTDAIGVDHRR
pIC50: −log10 of the molar value.

compound	assayed.target	pIC50
Cc1nc(-c2ccc(C3c4[nH]c5ccc(Cl)cc5c4CCN3C(=O)Oc3ccccc3)cc2)no1 (stereo not shown)	DHODH (Mus musculus, UniProt O35435)	6.92

----------
tested on: A‐673 cells; experiment: Cell viability assay (XTT), A‐673 cells; type: cell-based, human; conditions: 72 h

compound	Cell viability of A‐673 cells
Cc1nc(-c2ccc(C3c4[nH]c5ccc(Cl)cc5c4CCN3C(=O)Oc3ccccc3)cc2)no1 (stereo not shown)	decreased the viability
COc1ccc([C@H]2c3[nH]c4ccc(Cl)cc4c3CCN2C(=O)Oc2ccc(Cl)cc2)cc1	decreased the viability

----------
biological target: DHODH (Homo sapiens, UniProt Q02127); construct: The mitochondria fraction was isolated from A‐673 cells using Q proteome Mitochondria Isolation kit; endogenous in cells; host or cells: A-673 cells, mitochondria fraction; assay: DHODH inhibition assay, A‐673 mitochondria fraction (orotic acid production, LCMSMS); type: biochemical; conditions: read-out: IC50 for orotic acid production through DHODH
Form field: IC50 (one value per entry).
endpoint: IC50 (nM)

compound	assayed.target	measured.result
Cc1nc(-c2ccc(C3c4[nH]c5ccc(Cl)cc5c4CCN3C(=O)Oc3ccccc3)cc2)no1 (centres unmarked) [K-733]	DHODH (Homo sapiens, UniProt Q02127)	0.953
COc1ccc([C@H]2c3[nH]c4ccc(Cl)cc4c3CCN2C(=O)Oc2ccc(Cl)cc2)cc1 [PTC299]	DHODH (Homo sapiens, UniProt Q02127)	4.13

----------
System: UniProtKB Q63707 | Read-out: IC50
Sequence (Q63707 whole entry): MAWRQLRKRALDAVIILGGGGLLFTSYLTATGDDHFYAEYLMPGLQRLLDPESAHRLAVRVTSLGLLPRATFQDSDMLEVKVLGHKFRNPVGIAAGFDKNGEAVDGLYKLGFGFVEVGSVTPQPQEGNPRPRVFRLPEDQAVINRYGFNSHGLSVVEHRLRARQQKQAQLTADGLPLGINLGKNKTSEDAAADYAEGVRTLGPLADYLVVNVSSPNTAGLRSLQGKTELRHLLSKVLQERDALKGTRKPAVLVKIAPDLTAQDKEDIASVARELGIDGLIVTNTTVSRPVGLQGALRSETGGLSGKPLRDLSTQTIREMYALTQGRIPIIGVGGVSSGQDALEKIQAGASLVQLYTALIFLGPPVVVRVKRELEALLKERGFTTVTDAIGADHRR

compound	assayed.target	IC50 [nM]
COc1ccc([C@H]2c3[nH]c4ccc(Cl)cc4c3CCN2C(=O)Oc2ccc(Cl)cc2)cc1 [PTC299]	UniProtKB Q63707	1520
O=C(O)c1c2c(nc3ccc(F)cc13)-c1ccc(-c3ccccc3F)cc1CCC2 [KF20444]	UniProtKB Q63707	34.1
